Kd values for the binders below.
Target: T1, human GPC3-His protein (human, UniProt P51654 25-559)
T1 construct: also called human GPC3 protein; not shown: His tag
Assay: SPR, antibody captured on Protein A chip, human GPC3-His analyte;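 also: measured at 25 °C flow cell, human GPC3-His injected at five concentrations up to 200 nM, 240 s association, up to 600 s dissociation, double-referenced, fitted to Langmuir 1:1 model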
Reply numerically in nM, unit not repeated.

BINDER	Kd / nM
F1.2.14 (antibody, human IgG1, kappa, V domains shown, Human-murine chimeric antibody) VH: RVQLQQSGAELVKPGASVRMSCKASGYTFTAYSIEWMKQNLGKSLEWIGNFRPYNDDTKYNENFKGRATLTVEKSSATVYLELSRLTSDDSAVYYCARSGPTDYFDYWGQGTTLIVSS VL: DIQMTQSPASLSASVGETVTITCRASDNIYSYLAWYQQKQGQSPQLLVYNAKTLAEGVPSRFSGSGSVTQFSLKIISLQPEDFGTYYCQHHFGTPRTFGGGTKLEIKR	2.37

## Task Endpoint output: Kd of F1.83.6 (antibody, human IgG1, kappa, V domains shown, Human-murine chimeric antibody) VH: QVQLQQSGPELVKPGASVKISCKASGYAFSSSWMNWVKQRPGKGLEWIGRIYPGDGDTNYNGRFKGKATLTVDKSSSTAYMQLSSLTSEDSAVYFCARGGVFTMALDHWGQGTTLTVSS VL: DIQMTQSPSSLSASLGGKVTITCKASQDINKYIAWYQHKPGKGPRLLIHYTSTLQPGIPSRFSGSGSGRDYSFSISNLEPEDIATYYCLQYDNLFTFGGGTKLEIKR . Value?
## Result 5.88
